Data origin: patent US12673052B2

Assay: Permeability in Caco-2 cells
Assay type: in vitro ADME
Conditions: human, highly permeable, read-out: apparent permeability coefficient (Papp)

# SMILES REPRESENTATION, Papp, ×10⁻⁶ cm/s
measured = [
    ("CNC(=O)c1cc2c(Oc3ccc(NC(=O)C4(C(=O)Nc5ccc(F)cc5)CC4)cc3)ccnc2cc1OC", 3.83),
]

---

Assay: Phase 1 first-in-human Study Compound 1-001 (NCT03845166): plasma pharmacokinetics
Format: in vivo
Settings: human, plasma, oral, tablet (as of April 2021); read-out: terminal half-life at steady state

# MOLECULE, half-life
data = [
    ("CNC(=O)c1cc2c(Oc3ccc(NC(=O)C4(C(=O)Nc5ccc(F)cc5)CC4)cc3)ccnc2cc1OC [Compound 1]", "24 to 28 h"),
]

---

Assay: Phase 1 first-in-human Study Compound 1-001 (NCT03845166): plasma pharmacokinetics
Format: in vivo
Conditions: human, plasma, oral, 20 mg, 20 mg PIB; First Dose (Day 1); mean ± SD; read-out: AUC0-24

# COMPOUND, AUC(0-t) / ng·h/mL
measured = [
    ("CNC(=O)c1cc2c(Oc3ccc(NC(=O)C4(C(=O)Nc5ccc(F)cc5)CC4)cc3)ccnc2cc1OC [Compound 1]", 1000),
]

---

Test: Single-dose plasma PK, IV and oral (PEG 400:EtOH:RO water)
Type: in vivo, dogs
Settings: beagle, dog, plasma, po; 0.2-0.6 mg/kg; read-out: Oral absolute bioavailability
ATTRIBUTE MEASURED: bioavailability

# COMPOUND, RESULT
rows = [
    ("CNC(=O)c1cc2c(Oc3ccc(NC(=O)C4(C(=O)Nc5ccc(F)cc5)CC4)cc3)ccnc2cc1OC [Compound 1]", "47 to 70%"),
]

---

Test: Phase 1 first-in-human Study Compound 1-001 (NCT03845166): plasma pharmacokinetics
Type: in vivo
Conditions: human, plasma, oral, 80 mg, 80 mg Tablet; Steady-State (Day 28); mean ± SD; read-out: AUC0-24

# SMILES REPRESENTATION, AUC(0-t) [ng·h/mL]
rows = [
    ("CNC(=O)c1cc2c(Oc3ccc(NC(=O)C4(C(=O)Nc5ccc(F)cc5)CC4)cc3)ccnc2cc1OC", 16900),
]

---

Experiment: Single-dose plasma PK, IV and oral (PEG 400:EtOH:RO water)
Format: in vivo, rats
Details: rat, plasma; single-dose IV; read-out: mean plasma t1/2, z (converted)

# SMILES REPRESENTATION, half-life
measured = [
    ("CNC(=O)c1cc2c(Oc3ccc(NC(=O)C4(C(=O)Nc5ccc(F)cc5)CC4)cc3)ccnc2cc1OC", "~9 h"),
]

---

Experiment: Phase 1 first-in-human Study Compound 1-001 (NCT03845166): plasma pharmacokinetics
Type: in vivo
Conditions: human, plasma, oral, 10 mg, 10 mg PIB; Steady-State (Day 28); median (min, max)

# COMPOUND, Tmax at 28 days, h
measured = [
    ("CNC(=O)c1cc2c(Oc3ccc(NC(=O)C4(C(=O)Nc5ccc(F)cc5)CC4)cc3)ccnc2cc1OC [Compound 1]", 2),
]

---

Experiment: Toxicokinetics in 28-day repeat-dose toxicity study
Format: in vivo, rats
Settings: both sexes, rat, plasma; oral daily 1, 3 or 10 mg/kg; Days 1 and 28
ATTRIBUTE MEASURED: Tmax

# COMPOUND, RESULT
measured = [
    ("CNC(=O)c1cc2c(Oc3ccc(NC(=O)C4(C(=O)Nc5ccc(F)cc5)CC4)cc3)ccnc2cc1OC [Compound 1]", "2 to 8 h"),
]
